experiment: Further oral pharmacokinetic study in female Balb/c mice, 5, 10 and 20 mg/kg; conditions: mouse, plasma, 5 mg/kg, Cmax, Mean, 5 mg/kg single oral dose
observation.type: Cmax (ng/mL)
Enter your answer as a number in ng/mL; do not include the unit.

Quick check: Cmax of CC[C@H]1OC(=O)[C@@](C)(F)C(=O)[C@H](C)[C@@H](O[C@@H]2O[C@H](C)C[C@H](N(C)C)[C@H]2O)[C@](C)(OC)C[C@@H](C)C(=O)[C@H](C)[C@H]2N(CCCCn3cc(-c4cccc(N)c4)nn3)C(=O)O[C@]12C [Form II, solithromycin] ?
1850

* * *

test: in vivo; conditions: female, Balb/c, mouse, po, 100 mg/kg
observation.type: concentration at 4 h (ng/mL)
Enter your answer as a number in ng/mL; do not include the unit.

Quick check: concentration at 4 h of CC[C@H]1OC(=O)[C@@](C)(F)C(=O)[C@H](C)[C@@H](O[C@@H]2O[C@H](C)C[C@H](N(C)C)[C@H]2O)[C@](C)(OC)C[C@@H](C)C(=O)[C@H](C)[C@H]2N(CCCCn3cc(-c4cccc(N)c4)nn3)C(=O)O[C@]12C [Form I, solithromycin] ?
16000

* * *

assay: in vivo; details: male, Balb/c, mouse, po, 20 mg/kg
observation.type: concentration at 6 h (ng/mL)
Enter your answer as a number in ng/mL; do not include the unit.

Quick check: concentration at 6 h of CC[C@H]1OC(=O)[C@@](C)(F)C(=O)[C@H](C)[C@@H](O[C@@H]2O[C@H](C)C[C@H](N(C)C)[C@H]2O)[C@](C)(OC)C[C@@H](C)C(=O)[C@H](C)[C@H]2N(CCCCn3cc(-c4cccc(N)c4)nn3)C(=O)O[C@]12C [Form I, solithromycin] ?
2600

* * *

experiment: in vivo; conditions: female, Balb/c, mouse, po, 10 mg/kg, Tmax
observation.type: Tmax (h)
Enter your answer as a number in h; do not include the unit.

Quick check: Tmax of CC[C@H]1OC(=O)[C@@](C)(F)C(=O)[C@H](C)[C@@H](O[C@@H]2O[C@H](C)C[C@H](N(C)C)[C@H]2O)[C@](C)(OC)C[C@@H](C)C(=O)[C@H](C)[C@H]2N(CCCCn3cc(-c4cccc(N)c4)nn3)C(=O)O[C@]12C [Form I, solithromycin] ?
2

* * *

experiment: Oral pharmacokinetics in Balb/c mice, single dose 20 or 100 mg/kg; conditions: female, Balb/c, mouse, plasma, po, 20 mg/kg
observation.type: concentration at 0 h (ng/mL)
Enter your answer as a number in ng/mL; do not include the unit.

Quick check: concentration at 0 h of CC[C@H]1OC(=O)[C@@](C)(F)C(=O)[C@H](C)[C@@H](O[C@@H]2O[C@H](C)C[C@H](N(C)C)[C@H]2O)[C@](C)(OC)C[C@@H](C)C(=O)[C@H](C)[C@H]2N(CCCCn3cc(-c4cccc(N)c4)nn3)C(=O)O[C@]12C [Form II, solithromycin] ?
0

* * *

experiment: Mean intrinsic dissolution studies; format: physicochemical; settings: 0.1N Hydrochloric Acid
Please provide measured Mean intrinsic dissolution rate for the entries that follow.

Quick check: Mean intrinsic dissolution rate of CC[C@H]1OC(=O)[C@@](C)(F)C(=O)[C@H](C)[C@@H](O[C@@H]2O[C@H](C)C[C@H](N(C)C)[C@H]2O)[C@](C)(OC)C[C@@H](C)C(=O)[C@H](C)[C@H]2N(CCCCn3cc(-c4cccc(N)c4)nn3)C(=O)O[C@]12C [Form I Batch A] ?
9.4 mg/min/cm^2

Same thing, different compound: CC[C@H]1OC(=O)[C@@](C)(F)C(=O)[C@H](C)[C@@H](O[C@@H]2O[C@H](C)C[C@H](N(C)C)[C@H]2O)[C@](C)(OC)C[C@@H](C)C(=O)[C@H](C)[C@H]2N(CCCCn3cc(-c4cccc(N)c4)nn3)C(=O)O[C@]12C [Form I Batch B]
10.6 mg/min/cm^2

Same thing, different compound: CC[C@H]1OC(=O)[C@@](C)(F)C(=O)[C@H](C)[C@@H](O[C@@H]2O[C@H](C)C[C@H](N(C)C)[C@H]2O)[C@@](C)(OC)C[C@@H](C)C(=O)[C@H](C)[C@H]2N(CCCCn3cc(-c4cccc(N)c4)nn3)C(=O)O[C@]12C [Form I Batch C]
7.9 mg/min/cm^2

Same thing, different compound: CC[C@H]1OC(=O)[C@@](C)(F)C(=O)[C@H](C)[C@@H](O[C@@H]2O[C@H](C)C[C@H](N(C)C)[C@H]2O)[C@](C)(OC)C[C@@H](C)C(=O)[C@H](C)[C@H]2N(CCCCn3cc(-c4cccc(N)c4)nn3)C(=O)O[C@]12C [Form II, solithromycin]
8.8 mg/min/cm^2

* * *

assay: Oral pharmacokinetics in Balb/c mice, single dose 20 or 100 mg/kg; details: male, Balb/c, mouse, plasma, po, 100 mg/kg
observation.type: concentration at 2 h (ng/mL)
Enter your answer as a number in ng/mL; do not include the unit.

Quick check: concentration at 2 h of CC[C@H]1OC(=O)[C@@](C)(F)C(=O)[C@H](C)[C@@H](O[C@@H]2O[C@H](C)C[C@H](N(C)C)[C@H]2O)[C@](C)(OC)C[C@@H](C)C(=O)[C@H](C)[C@H]2N(CCCCn3cc(-c4cccc(N)c4)nn3)C(=O)O[C@]12C [Form II, solithromycin] ?
9300

* * *

assay: Further oral pharmacokinetic study in female Balb/c mice, 5, 10 and 20 mg/kg; settings: mouse, plasma, 5 mg/kg, Tmax, Median, 5 mg/kg single oral dose
observation.type: Tmax (h)
Enter your answer as a number in h; do not include the unit.

Quick check: Tmax of CC[C@H]1OC(=O)[C@@](C)(F)C(=O)[C@H](C)[C@@H](O[C@@H]2O[C@H](C)C[C@H](N(C)C)[C@H]2O)[C@](C)(OC)C[C@@H](C)C(=O)[C@H](C)[C@H]2N(CCCCn3cc(-c4cccc(N)c4)nn3)C(=O)O[C@]12C [Form II, solithromycin] ?
1

* * *

assay: in vivo; conditions: male, Balb/c, mouse, po, 20 mg/kg
observation.type: AUC(0-t) (ng·h/mL)
Enter your answer as a number in ng·h/mL; do not include the unit.

Quick check: AUC(0-t) of CC[C@H]1OC(=O)[C@@](C)(F)C(=O)[C@H](C)[C@@H](O[C@@H]2O[C@H](C)C[C@H](N(C)C)[C@H]2O)[C@](C)(OC)C[C@@H](C)C(=O)[C@H](C)[C@H]2N(CCCCn3cc(-c4cccc(N)c4)nn3)C(=O)O[C@]12C [Form I, solithromycin] ?
35000

* * *

assay: Oral pharmacokinetics in Balb/c mice, single dose 20 or 100 mg/kg; details: male, Balb/c, mouse, plasma, po, 20 mg/kg
observation.type: concentration at 0 h (ng/mL)
Enter your answer as a number in ng/mL; do not include the unit.

Quick check: concentration at 0 h of CC[C@H]1OC(=O)[C@@](C)(F)C(=O)[C@H](C)[C@@H](O[C@@H]2O[C@H](C)C[C@H](N(C)C)[C@H]2O)[C@](C)(OC)C[C@@H](C)C(=O)[C@H](C)[C@H]2N(CCCCn3cc(-c4cccc(N)c4)nn3)C(=O)O[C@]12C [Form II, solithromycin] ?
0

* * *

experiment: in vivo; conditions: male, Balb/c, mouse, po, 100 mg/kg
observation.type: concentration at 1 h
Please answer using a numeric value trailed by its unit.

Quick check: concentration at 1 h of CC[C@H]1OC(=O)[C@@](C)(F)C(=O)[C@H](C)[C@@H](O[C@@H]2O[C@H](C)C[C@H](N(C)C)[C@H]2O)[C@](C)(OC)C[C@@H](C)C(=O)[C@H](C)[C@H]2N(CCCCn3cc(-c4cccc(N)c4)nn3)C(=O)O[C@]12C [Form I, solithromycin] ?
13100 ng/mL

* * *

test: in vivo; details: female, Balb/c, mouse, po, 20 mg/kg
observation.type: Tmax (min)
Enter your answer as a number in min; do not include the unit.

Quick check: Tmax of CC[C@H]1OC(=O)[C@@](C)(F)C(=O)[C@H](C)[C@@H](O[C@@H]2O[C@H](C)C[C@H](N(C)C)[C@H]2O)[C@](C)(OC)C[C@@H](C)C(=O)[C@H](C)[C@H]2N(CCCCn3cc(-c4cccc(N)c4)nn3)C(=O)O[C@]12C [Form I, solithromycin] ?
30

* * *

experiment: Aqueous solubility in water at indicated pH; conditions: water at adjusted pH, 26 °C, pH 7.4, aqueous buffer, thermodynamic from solid
observation.type: solubility at 6 h (µg/mL)
Enter your answer as a number in µg/mL; do not include the unit.

Quick check: solubility at 6 h of CC[C@H]1OC(=O)[C@@](C)(F)C(=O)[C@H](C)[C@@H](O[C@@H]2O[C@H](C)C[C@H](N(C)C)[C@H]2O)[C@](C)(OC)C[C@@H](C)C(=O)[C@H](C)[C@H]2N(CCCCn3cc(-c4cccc(N)c4)nn3)C(=O)O[C@]12C [Form II, solithromycin] ?
305
